# System: COLO 205 colon
# ASSAY_INFO: NCI tumour cell line growth inhibition, 48 h; in the data active = GI50 below about 0.43 µM; inactive = the rest
Use one of these outcomes when replying: yes (1) for active, no (0) for inactive

The following compounds have reported results that may help.
| COMPOUND | STUDY_SYSTEM | ANSWER_LABEL |
| --- | --- | --- |
| O=[N+]([O-])/C=C/c1ccc(Cl)cc1[N+](=O)[O-] | COLO 205 colon | no (0) |
| CC(=O)Oc1cc2cnc3c4cc(OC(C)=O)c(OC(C)=O)cc4ccc3c2cc1OC(C)=O | COLO 205 colon | no (0) |
| CCOC(=O)/C(=C\c1ccc2ccccc2c1)P(=O)(OCC)OCC | COLO 205 colon | no (0) |

Q: Assay outcome for Cc1ccc(C2CC(c3ccc(Nc4ccnc5cc(Cl)ccc45)cc3)=NN2C=O)cc1 (configuration not stated) : what was it?
Ans: no (0)

* * *

# Tested on: BT-549 breast
# ASSAY_INFO: NCI tumour cell line growth inhibition, 48 h
READOUT_LABEL: TGI (µM)
# unit: µM | format: bare number

| MOLECULE | REPORTED_VALUE |
| --- | --- |
| COc1ccc(-c2cc(/C=C/C(=O)c3ccc(N)cc3)[nH]n2)cc1 | 4.78 |
| NCCCN=c1ccc2c3c1c(O)c1c(O)ccc(=O)c1c3[nH]n2CCNCCO | 5.31 |

Q: Endpoint output: TGI of COC(=O)c1c(O)ccc2c1c1c(n2Cc2cc(OC)cc(OC)c2)C(=O)c2ccccc2C1=O . Value?
Ans: 29

Q: Endpoint output: TGI of O=C1Cc2cn[nH]c2-c2ccccc2N1 . Value?
Ans: 61.5

Q: Endpoint output: TGI of Cn1cnnc1[S-].[Au+].c1ccc([PH+](c2ccccc2)c2ccccc2)cc1 . Value?
Ans: 2.76

* * *

# Test system: ACHN renal
# ASSAY_INFO: NCI tumour cell line growth inhibition, 48 h
READOUT_LABEL: TGI

Solved entries:
| COMPOUND | TGI |
| --- | --- |
| C[C@@H]1CC[C@@H]2[C@@H](C1)O[C@@H]([C@@H](C)OCc1ccccc1)SC2(C)C | 31.6 µM |
| CCCCCCCCC(O)c1ccc(/C=C\C(O)CCCC(=O)O)s1 (centres undefined) | > 100 µM |
| Cn1c(=O)c2c(nc(N/N=C/c3ccccc3C(=O)O)n2C)n(C)c1=O | > 100 µM |
| CNC(=O)OCc1nc(SC)n(C)c1COC(=O)NC | 361 µM |
| CC1(C)C2CCC13C(=O)C1OC3(C2)C2C(=O)c3c(ccc4c3ccc3ccccc34)C(=O)C12 (centres undefined) | > 100 µM |

Q: Endpoint output: TGI of O=C1CSC(c2ccccc2O)N1c1ccc(-n2c(-c3ccccc3)nc3ccccc3c2=O)cc1 (centres undefined) . Value?
Ans: 83.6 µM

Q: Endpoint output: TGI of O=CN1N=C(c2cccc(Nc3ccnc4cc(Cl)ccc34)c2)CC1c1ccc(Cl)cc1 (centres undefined) . Value?
Ans: > 100 µM

Q: Endpoint output: TGI of O=[N+]([O-])c1cccc(Nc2nc(Cl)nc(Cl)n2)c1 . Value?
Ans: > 100 µM

Q: Endpoint output: TGI of CC(=O)[C@H]1[C@H](O)C[C@@]2(C)[C@@H]3CCc4cc(O)c(OC5OC(CO)C(O)C(O)C5O)cc4C3(C)C(=O)C[C@]12C (some centres undefined) . Value?
Ans: > 100 µM

Q: Endpoint output: TGI of COc1cc(/C=C2\SC(N3CCCCC3)=NC2=O)ccc1OCCCCCCOc1ccc(/C=C2\SC(N3CCCCC3)=NC2=O)cc1OC . Value?
Ans: 34.2 µM

Ref: PubChem BioAssay (NCI)
